Molecular target: human TrkA (Homo sapiens)
Construct: purchased Lifetechnologies PV3144
Sequence (P04629 33-796): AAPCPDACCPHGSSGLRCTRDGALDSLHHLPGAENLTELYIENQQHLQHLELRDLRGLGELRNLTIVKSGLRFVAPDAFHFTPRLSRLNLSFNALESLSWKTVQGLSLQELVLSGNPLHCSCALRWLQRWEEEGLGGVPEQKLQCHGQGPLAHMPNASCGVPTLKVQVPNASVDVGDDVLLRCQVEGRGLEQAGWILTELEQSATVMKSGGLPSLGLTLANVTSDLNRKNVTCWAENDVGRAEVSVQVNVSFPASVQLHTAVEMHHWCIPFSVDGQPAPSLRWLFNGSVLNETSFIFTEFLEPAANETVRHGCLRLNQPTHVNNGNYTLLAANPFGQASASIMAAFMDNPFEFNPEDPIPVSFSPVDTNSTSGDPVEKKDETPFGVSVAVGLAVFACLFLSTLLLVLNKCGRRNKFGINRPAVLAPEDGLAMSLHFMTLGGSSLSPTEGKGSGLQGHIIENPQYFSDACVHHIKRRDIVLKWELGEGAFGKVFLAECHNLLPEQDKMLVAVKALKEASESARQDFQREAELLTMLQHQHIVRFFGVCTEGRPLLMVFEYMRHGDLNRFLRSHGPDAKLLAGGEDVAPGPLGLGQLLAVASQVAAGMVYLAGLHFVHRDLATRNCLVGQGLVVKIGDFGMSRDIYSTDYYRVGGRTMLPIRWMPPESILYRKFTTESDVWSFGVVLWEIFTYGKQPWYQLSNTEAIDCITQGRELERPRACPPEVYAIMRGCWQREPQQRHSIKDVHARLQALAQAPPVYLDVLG
Assay: Test Example 2-2: Human TrkA Inhibition Assay
Assay type: biochemical
Conditions: human TrkA 1 nmol/L, 120 min at 37° C., read-out: TrkA inhibition IC50
Label T when IC50 is strictly below 50 nM; otherwise label F.

Use the examples below as a reference point.
# COMPOUND, GROUP
measured = [
    ("CC(=O)CN1C[C@@H](NC(=O)Nc2c(C)c(-c3cnn(C)c3)nn2-c2ccccc2)[C@H](c2ccc(F)c(F)c2)C1", "F"),
    ("COCCN1C[C@@H](NC(=O)Nc2c(C)c(-c3cnn(C)c3)nn2-c2ccccc2)[C@H](c2ccc3c(c2)OCO3)C1 (racemic)", "F"),
    ("Cc1c(-c2cnn(C)c2)nn(-c2ccccc2)c1NC(=O)N[C@@H]1C[C@@H](Oc2ccncc2)C[C@H]1c1ccccc1 (racemic)", "F"),
    ("Cc1c(-c2cnn(C)c2)nn(-c2ccccc2)c1NC(=O)N[C@@H]1CN(CCOC2CC2)C[C@H]1c1ccc(F)c(F)c1", "T"),
]

Now consider the entry below.
Task item: Please state whether IC50 is below 50 nM for COCC[C@@H]1C[C@@H](NC(=O)Nc2c(C)c(-c3cnc(C)nc3)nn2-c2ccccc2)[C@H](c2ccc(F)c(F)c2)N1
Reply: T
